Test system: Hop62
Test: SRB assay, lung cancer cell line Hop62
Format: cell-based
Settings: Homo sapiens, HOP-62, 48 h, read-out: In vitro anticancer activity GI50, Lung Hop62
# Lookup of reported log10(GI50) keyed by entry
Value Type: log10(GI50) (log10 of the value in nM)

{"Line Notation": "COc1cc(/C=C(/C(=O)N[C@@H]2c3cc4c(cc3[C@@H](c3cc(OC)c(OC)c(OC)c3)[C@H]3C(=O)OC[C@@H]32)OCO4)c2cc(OC)c(OC)c(OC)c2)ccc1F", "log10(GI50)": 3.40}
{"Line Notation": "COc1ccccc1/C(=C\\c1ccccc1[N+](=O)[O-])C(=O)N[C@@H]1c2cc3c(cc2[C@@H](c2cc(OC)c(OC)c(OC)c2)[C@H]2C(=O)OC[C@@H]21)OCO3", "log10(GI50)": 3.32}
{"Line Notation": "COc1cc(/C(=C\\c2ccccc2[N+](=O)[O-])C(=O)N[C@@H]2c3cc4c(cc3[C@@H](c3cc(OC)c(OC)c(OC)c3)[C@H]3C(=O)OC[C@@H]32)OCO4)cc(OC)c1OC", "log10(GI50)": 3.43}
{"Line Notation": "COc1ccccc1/C(=C\\c1ccc([N+](=O)[O-])cc1)C(=O)N[C@@H]1c2cc3c(cc2[C@@H](c2cc(OC)c(OC)c(OC)c2)[C@H]2C(=O)OC[C@@H]21)OCO3", "log10(GI50)": 3.30}
{"Line Notation": "COc1cc(/C(=C\\c2cccc([N+](=O)[O-])c2)C(=O)N[C@@H]2c3cc4c(cc3[C@@H](c3cc(OC)c(OC)c(OC)c3)[C@H]3C(=O)OC[C@@H]32)OCO4)cc(OC)c1OC", "log10(GI50)": 2.23}

Where do these numbers come from? They come from patent US8673969B2.
